The origin of these recorded values is patent US6288070A.

Collected IC50 values appear next to each entry.
# STUDY SYSTEM: adenosine A2 receptor (Rattus norvegicus, UniProt P30543)
# Construct: from tissue
# Sequence (P30543 whole entry): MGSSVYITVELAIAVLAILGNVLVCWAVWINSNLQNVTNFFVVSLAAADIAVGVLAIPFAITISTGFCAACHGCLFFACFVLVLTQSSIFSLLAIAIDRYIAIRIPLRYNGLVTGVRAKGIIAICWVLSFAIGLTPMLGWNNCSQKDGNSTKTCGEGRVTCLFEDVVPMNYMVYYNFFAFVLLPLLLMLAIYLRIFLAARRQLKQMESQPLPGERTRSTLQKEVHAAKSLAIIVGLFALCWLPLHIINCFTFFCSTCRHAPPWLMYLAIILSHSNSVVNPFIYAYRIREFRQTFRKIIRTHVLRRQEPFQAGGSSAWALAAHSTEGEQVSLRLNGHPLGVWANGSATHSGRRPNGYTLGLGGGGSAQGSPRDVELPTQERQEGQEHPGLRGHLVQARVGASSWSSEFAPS
# TEST DETAILS: Adenosine A2 receptor binding capacity
# CONDITION NOTES: adenosine A2 receptor; read-out: Receptor binding capacity (IC50) Adenosine A2
Respond with the bare value in µM.

COMPOUND STRUCTURE: Cc1nc2nc[nH]c2c2nc(-c3cccnc3)nn12
STUDY SYSTEM: adenosine A2 receptor (Rattus norvegicus, UniProt P30543)
VALUE UNIT: µM
IC50: 3

Shift focus to the following entry.
What does the record list as IC50 for "CCCCc1nc2nc[nH]c2c2nc(-c3ccc(NC)cc3)nn12" ?
2.4

* * *

Target protein (sequence): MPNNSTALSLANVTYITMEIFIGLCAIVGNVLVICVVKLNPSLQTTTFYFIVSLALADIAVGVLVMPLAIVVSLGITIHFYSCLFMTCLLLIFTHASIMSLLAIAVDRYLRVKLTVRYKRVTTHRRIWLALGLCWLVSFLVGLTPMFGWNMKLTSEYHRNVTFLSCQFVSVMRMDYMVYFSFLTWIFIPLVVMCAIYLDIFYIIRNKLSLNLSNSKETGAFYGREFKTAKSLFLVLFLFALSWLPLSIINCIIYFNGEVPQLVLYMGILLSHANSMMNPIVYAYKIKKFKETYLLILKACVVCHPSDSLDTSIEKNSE
PROPERTY LABEL: pIC50
Would you please state pIC50, meaning minus log10 of the concentration in mol/L, as a bare number?

Solved cases below.
COMPOUND STRUCTURE: CCCCc1nc2nc[nH]c2c2nc(-c3ccc(N(Cc4ccccc4)Cc4ccccc4)cc3)nn12
PROPERTY LABEL: pIC50
ENDPOINT VALUE: 7.82

COMPOUND STRUCTURE: c1ccc(-c2nc3nc[nH]c3c3nc(-c4cccnc4)nn23)cc1
PROPERTY LABEL: pIC50
ENDPOINT VALUE: 8.13

COMPOUND STRUCTURE: CCCCc1nc2nc[nH]c2c2nc(-c3ccc(NC)cc3)nn12
PROPERTY LABEL: pIC50
ENDPOINT VALUE: 9.00

COMPOUND STRUCTURE: CCCCc1nc2nc[nH]c2c2nc(-c3ccc(CC)cc3)nn12
PROPERTY LABEL: pIC50
ENDPOINT VALUE: 8.27

COMPOUND STRUCTURE: CCCCc1nc2nc[nH]c2c2nc(-c3ccc(OC)c(OC)c3)nn12
PROPERTY LABEL: pIC50
ENDPOINT VALUE: 8.80

Consider the compound "CCCCc1nc2nc[nH]c2c2nc(-c3ccc(OCc4ccccc4)cc3)nn12" and give its measured pIC50.
8.77

GET /values?readout=pIC50&item= "CCCCc1nc2nc[nH]c2c2nc(/C=C/c3ccccc3)nn12"
8.96

Need pIC50, item "CCCCc1nc2nc[nH]c2c2nc(-c3ccc(OC(F)(F)F)cc3)nn12"
8.24

# get_value(readout='pIC50', item= "COc1cc(-c2nc3c4[nH]cnc4nc(C)n3n2)cc(OC)c1OC" )
7.02

* * *

# STUDY SYSTEM: UniProt:P25099
# Sequence (P25099 whole entry): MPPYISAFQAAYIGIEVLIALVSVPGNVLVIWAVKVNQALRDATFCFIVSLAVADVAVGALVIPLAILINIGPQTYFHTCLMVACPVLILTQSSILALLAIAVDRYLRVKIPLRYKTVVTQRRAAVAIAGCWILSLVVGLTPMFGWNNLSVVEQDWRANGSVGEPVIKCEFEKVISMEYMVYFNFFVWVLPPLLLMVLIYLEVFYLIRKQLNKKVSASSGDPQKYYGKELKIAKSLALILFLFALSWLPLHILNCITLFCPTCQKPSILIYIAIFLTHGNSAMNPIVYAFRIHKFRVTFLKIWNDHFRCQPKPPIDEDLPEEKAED
Below: a set of entries, each annotated with reported IC50.
Quick reminder: number only, in nM, skip the unit.

Here's what some known entries look like.
COMPOUND: CCCCc1nc2[nH]cnc2c2nc(-c3cc(OC)c(OC)c(OC)c3)nn12 [Example 12]
IC50 [nM]: 1000
//
COMPOUND: Cc1nc2nc[nH]c2c2nc(-c3cccnc3)nn12 [Example 3]
IC50 [nM]: 2600

Let us examine a further case.
// map COc1cc(-c2nc3c4[nH]cnc4nc(-c4ccccc4)n3n2)cc(OC)c1OC [Example 19] to recorded IC50 (system: UniProt:P25099)
93
